Source listed as ChEMBL document CHEMBL3124843.

Tested on: K562
Method: Cytostatic activity against paclitaxel-resistant human K562 cells after 72 hrs by MTT assay
Assay type: functional, cell-based
Experimental conditions: K562, 72 h
Endpoint label: IC50 (µM)
Give bare numbers, in µM.

// for each compound in input: emit IC50
1. CNc1ncnc2c1ccn2[C@@H]1O[C@H](CO)[C@@H](O)[C@H]1O
2. Nc1ncnc2c1c(-c1cccs1)cn2[C@@H]1O[C@H](CO)[C@@H](O)[C@H]1O
3. O=c1[nH]cnc2c1c(-c1ccoc1)cn2[C@@H]1O[C@H](CO)[C@@H](O)[C@H]1O
4. Nc1nc2c(c(-c3cccs3)cn2[C@@H]2O[C@H](CO)[C@@H](O)[C@H]2O)c(=O)[nH]1
5. CN(C)c1ncnc2c1c(I)cn2[C@@H]1O[C@H](CO)[C@@H](O)[C@H]1O
6. Cc1ncnc2c1ccn2[C@@H]1O[C@H](CO)[C@@H](O)[C@H]1O

Solution:
1. 0.92
2. 0.02
3. 14.5
4. 16.8
5. 0.05
6. 0.05
